Assay: CUR solubility in different vehicles (oils and surfactants)
Format: physicochemical
Conditions: 25 °C, organic solvent or mixture, thermodynamic from solid; in Transcutol P
Method: Different types of oils were selected based on biocompatibility and biodegradability: Mygliol® 812, Capryol® PGMC and Capryol® 90, Tegin® O, Isopropylmyristate (IPM), and Castor oil. Five surfactants, including Tween® 20, Tween® 80, Cremophor EL®, Solutol ®HS15, and Transcutol® P, were selected for the experiment in order to investigate the best materials for CUR-SNEDDS preparation. […] The mixtures were stirred (350 rpm) using a magnetic stirrer for 24 h. […] The absorbance reading occurred at 422 nm.
Quantity Measured: solubility at 24 h (µg/mL)
Report only the number, with the unit µg/mL understood.

So, COc1cc(/C=C/C(=O)CC(=O)/C=C/c2ccc(O)c(OC)c2)ccc1O ? Its solubility at 24 h was 4610
